# TARGET_DESC: human CB2R (Homo sapiens)
# Construct: host or cells: CHO cells
# Sequence (P34972 whole entry): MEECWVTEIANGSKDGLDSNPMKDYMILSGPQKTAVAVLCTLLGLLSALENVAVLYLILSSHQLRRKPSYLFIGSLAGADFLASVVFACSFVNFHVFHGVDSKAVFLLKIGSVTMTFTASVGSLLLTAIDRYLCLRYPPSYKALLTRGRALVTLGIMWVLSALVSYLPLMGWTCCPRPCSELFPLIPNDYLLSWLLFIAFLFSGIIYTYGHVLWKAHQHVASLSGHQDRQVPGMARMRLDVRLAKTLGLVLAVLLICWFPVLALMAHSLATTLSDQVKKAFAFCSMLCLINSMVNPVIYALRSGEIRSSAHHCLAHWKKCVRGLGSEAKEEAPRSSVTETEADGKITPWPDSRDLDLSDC
# EXPERIMENT_NOTES: CB2R mediated modulation of cAMP synthesis
# Format: cell-based

SMILES_NOTATION: CN(C(=O)CCCC(F)(F)F)C(C)(C)C(=O)Nc1cc(C(C)(C)CO)no1
TARGET_DESC: human CB2R (Homo sapiens)
VALUE_UNIT: nM
EC50: 27
--
SMILES_NOTATION: CC(C)(CO)c1cc(NC(=O)C(C)(C)N2CCCCC2)on1
TARGET_DESC: human CB2R (Homo sapiens)
VALUE_UNIT: nM
EC50: 28
--
SMILES_NOTATION: CN(C1CCOCC1)C(C)(C)C(=O)Nc1cc(C2(CO)CCC2)no1
TARGET_DESC: human CB2R (Homo sapiens)
VALUE_UNIT: nM
EC50: 66
--
SMILES_NOTATION: CN([C@H]1CCN(S(C)(=O)=O)C1)C(C)(C)C(=O)Nc1cc(C(C)(C)CO)no1
TARGET_DESC: human CB2R (Homo sapiens)
VALUE_UNIT: nM
EC50: 28
